These measurements were taken from patent US9580413B2.

System name: FIG-ROS/BaF3 cell (Homo sapiens)
Construct: fused on or other part: Q9HD26 (Golgi-associated PDZ and coiled-coil motif-containing protein)
Sequence (P08922 whole entry, change not shown, the tested form may be a part): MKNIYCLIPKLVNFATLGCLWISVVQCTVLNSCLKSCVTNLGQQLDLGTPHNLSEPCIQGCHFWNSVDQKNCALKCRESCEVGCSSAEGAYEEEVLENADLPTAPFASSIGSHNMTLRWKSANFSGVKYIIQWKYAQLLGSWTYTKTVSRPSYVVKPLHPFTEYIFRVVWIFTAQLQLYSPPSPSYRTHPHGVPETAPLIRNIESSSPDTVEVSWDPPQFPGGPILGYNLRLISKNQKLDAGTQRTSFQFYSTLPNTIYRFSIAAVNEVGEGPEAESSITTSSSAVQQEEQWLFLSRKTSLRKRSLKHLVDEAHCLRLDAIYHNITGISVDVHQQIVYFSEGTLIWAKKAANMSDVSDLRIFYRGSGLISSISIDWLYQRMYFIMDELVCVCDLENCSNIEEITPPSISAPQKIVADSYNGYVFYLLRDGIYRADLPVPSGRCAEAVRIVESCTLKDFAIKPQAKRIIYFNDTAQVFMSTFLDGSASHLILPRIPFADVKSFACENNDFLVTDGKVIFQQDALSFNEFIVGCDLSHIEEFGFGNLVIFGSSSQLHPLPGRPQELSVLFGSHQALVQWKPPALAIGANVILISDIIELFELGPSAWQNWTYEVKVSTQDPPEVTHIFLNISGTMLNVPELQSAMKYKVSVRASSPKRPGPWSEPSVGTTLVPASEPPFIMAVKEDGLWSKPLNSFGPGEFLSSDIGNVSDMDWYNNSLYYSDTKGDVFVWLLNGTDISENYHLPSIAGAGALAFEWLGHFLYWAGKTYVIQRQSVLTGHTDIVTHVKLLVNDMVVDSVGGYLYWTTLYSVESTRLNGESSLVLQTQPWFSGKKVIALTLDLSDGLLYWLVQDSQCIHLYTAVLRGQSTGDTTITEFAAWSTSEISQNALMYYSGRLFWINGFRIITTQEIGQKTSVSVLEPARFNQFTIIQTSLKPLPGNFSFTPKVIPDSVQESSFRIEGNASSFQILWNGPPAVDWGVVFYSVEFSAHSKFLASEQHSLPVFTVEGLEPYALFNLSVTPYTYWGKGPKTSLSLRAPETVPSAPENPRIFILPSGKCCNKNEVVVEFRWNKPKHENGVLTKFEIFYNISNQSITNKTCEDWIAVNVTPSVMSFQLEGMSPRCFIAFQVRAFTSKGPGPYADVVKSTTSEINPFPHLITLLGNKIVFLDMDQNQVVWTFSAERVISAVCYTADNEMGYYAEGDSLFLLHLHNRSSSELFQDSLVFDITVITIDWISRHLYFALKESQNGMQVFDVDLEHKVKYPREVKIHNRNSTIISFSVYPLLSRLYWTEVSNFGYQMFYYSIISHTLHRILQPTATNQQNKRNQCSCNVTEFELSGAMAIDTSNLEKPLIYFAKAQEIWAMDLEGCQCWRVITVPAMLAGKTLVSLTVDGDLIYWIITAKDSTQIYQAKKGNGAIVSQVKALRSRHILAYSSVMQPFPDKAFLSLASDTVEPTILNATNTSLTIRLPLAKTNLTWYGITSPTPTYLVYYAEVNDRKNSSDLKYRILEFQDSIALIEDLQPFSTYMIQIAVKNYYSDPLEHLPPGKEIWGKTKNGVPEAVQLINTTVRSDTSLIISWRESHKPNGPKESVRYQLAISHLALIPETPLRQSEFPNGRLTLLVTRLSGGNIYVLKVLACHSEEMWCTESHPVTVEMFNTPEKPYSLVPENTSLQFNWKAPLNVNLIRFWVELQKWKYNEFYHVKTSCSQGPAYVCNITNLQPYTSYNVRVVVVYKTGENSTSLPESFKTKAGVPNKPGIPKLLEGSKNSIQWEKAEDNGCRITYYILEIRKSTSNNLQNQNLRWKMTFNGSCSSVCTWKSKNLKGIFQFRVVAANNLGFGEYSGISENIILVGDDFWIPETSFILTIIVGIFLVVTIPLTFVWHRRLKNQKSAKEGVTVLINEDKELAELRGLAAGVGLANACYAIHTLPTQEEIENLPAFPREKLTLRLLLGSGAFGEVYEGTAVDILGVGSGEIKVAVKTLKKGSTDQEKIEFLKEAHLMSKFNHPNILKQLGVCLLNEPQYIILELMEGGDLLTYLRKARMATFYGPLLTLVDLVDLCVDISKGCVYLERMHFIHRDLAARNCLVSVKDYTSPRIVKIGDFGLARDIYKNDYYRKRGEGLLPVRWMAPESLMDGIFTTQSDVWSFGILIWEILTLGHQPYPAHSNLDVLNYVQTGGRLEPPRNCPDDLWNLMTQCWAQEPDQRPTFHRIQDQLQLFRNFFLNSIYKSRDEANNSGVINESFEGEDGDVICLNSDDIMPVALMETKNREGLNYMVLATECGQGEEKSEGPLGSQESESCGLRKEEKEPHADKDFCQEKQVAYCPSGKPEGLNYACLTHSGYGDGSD
Method: Proliferation inhibitory activity test against FIG-ROS/BaF3 cell
Type: cell-based
Setup conditions: 3 days incubation, cell counting kit; read-out: Proliferation inhibitory activity against FIG-ROS/BaF3 cell (IC50)
Where a name gives a salt, the structure may show the parent alone.
Measure: GI50 (nM)

Cc1ccc([C@@H]2CCCN2c2nc(Nc3ncc(C#N)s3)c(C)c(C(=O)NC3CCN(C)CC3)n2)cc1 [Example 54]: 0.4
CCc1cnc(Nc2cncc(N3CCCC3c3ccc(C)cc3)n2)s1 (centres unmarked) [Example 45]: 7.6
COc1c(C)nc(N2CCC[C@H]2c2ccc(C)cc2)nc1Nc1ncc(C#N)s1 [Example 9, maleate]: 2.1
COc1cnc(N2CCCC2c2ccc(C)cc2)nc1Nc1ncc(C#N)s1 (centres unmarked) [Example 19]: 2.9

(1) CNC(=O)c1cc(N2CCC[C@H]2c2ccc(C)cc2)nc(Nc2ncc(C#N)s2)c1C [Example 55]
(2) Cc1ccc([C@@H]2CCCN2c2cc(-c3cnn(C)c3)cc(Nc3ncns3)n2)cc1 [Example 69]
(3) COc1c(Nc2ncc(C#N)s2)nc(N2CCC[C@H]2c2ccc(C)cc2)nc1-c1cnc(C)nc1 [Example 60]
(4) Cc1ccc([C@@H]2CCCN2c2cnc(C)c(Nc3ncc(C)s3)n2)cc1 [Example 29]
// ascending sort on recorded GI50 Answer format: the labels, in the requested order.
1, 3, 4, 2

(1) COc1ccc(-c2nc(N3CCCC3c3ccc(C)cc3)nc(Nc3ncc(C#N)s3)c2C)cn1 (centres unmarked) [Example 15]
(2) CCOC(=O)c1cnc(Nc2cncc(N3CCCC3c3ccc(C)cc3)n2)s1 (centres unmarked) [Example 51]
Lab note: check whether 1 or 2 has the lower measured GI50. Use the label to indicate which entry you chose.
1
